# experimental-system: PvdQ acyl-homoserine lactone acylase (Pseudomonas aeruginosa LESB58)
# assay: PvdQ acylase inhibitors, dose response, biochemical, 4-MU laurate fluorescence, dry powder, set 3 (AID 623991)
# run-parameters: Purified PvdQ, 4-MU laurate hydrolysis
This section presents compounds with their documented AC50 values.

Please review the following examples before continuing.
Input line: I'd like to know its AC50. The compound in question is CCCCC(C#N)c1ccc(Cl)cn1 (configuration not stated)
Output line: 3470 nM

Input line: I'd like to know its AC50. The compound in question is N#CC(c1ccc(F)cc1)c1cccc(C(F)(F)F)n1 (configuration not stated)
Output line: 4.71 nM

Input line: I'd like to know its AC50. The compound in question is COCCOCCC(C#N)c1ccc(Cl)cc1 (configuration not stated)
Output line: 7770 nM

Input line: I'd like to know its AC50. The compound in question is N#CC1c2ccc(Cl)cc2CCc2cccnc21 (configuration not stated)
Output line: 11200 nM

Input line: I'd like to know its AC50. The compound in question is N#CC(c1ccc(C(F)(F)F)c(Cl)n1)c1ccccc1OC(F)(F)F (configuration not stated)
Output line: 12200 nM

New cases:
Input line: I'd like to know its AC50. The compound in question is CN(C)CCCC(C#N)c1ccc(F)cc1 (configuration not stated)
Output line: 589 nM

Input line: I'd like to know its AC50. The compound in question is N#CC(c1ccc(Cl)cc1)c1cccc(Cl)n1 (configuration not stated)
Output line: 36.8 nM

Input line: I'd like to know its AC50. The compound in question is N#CC(c1cccc(Cl)n1)c1ccc(Cl)cc1F (configuration not stated)
Output line: 15.6 nM

Input line: I'd like to know its AC50. The compound in question is CCCCC(C#N)c1ccc(F)cc1 (configuration not stated)
Output line: 607 nM

Input line: I'd like to know its AC50. The compound in question is CCCCC(C#N)c1ccc(Cl)cc1 (configuration not stated)
Output line: 1070 nM

Input line: I'd like to know its AC50. The compound in question is N#CC(c1ccc(F)cc1)c1cccc(Cl)n1 (configuration not stated)
Output line: 119 nM

Input line: I'd like to know its AC50. The compound in question is N#CC(c1ccc(Cl)cc1)c1ncccc1Cl (configuration not stated)
Output line: 3.09 nM

Input line: I'd like to know its AC50. The compound in question is N#CC(c1ccc(Cl)cc1)N1CCCC1 (configuration not stated)
Output line: 1830 nM

Input line: I'd like to know its AC50. The compound in question is CCCCC(c1ccc(Cl)cc1)c1nn[nH]n1 (configuration not stated)
Output line: 3190 nM

---

# experimental-system: PvdQ acyl-homoserine lactone acylase (Pseudomonas aeruginosa LESB58)
# assay: PvdQ acylase inhibitors, dose response, biochemical, 4-MU laurate fluorescence, dry powder, set 3 (AID 623991)
# run-parameters: Purified PvdQ, 4-MU laurate hydrolysis
This section presents compounds with their documented AC50 values.

Please review the following examples before continuing.
Input line: I'd like to know its AC50. The compound in question is CN(C)CCCC(C#N)c1ccc(Cl)cc1 (stereo not drawn)
Output line: 17900 nM

Input line: I'd like to know its AC50. The compound in question is COCCOCCC(C#N)c1ccc(F)cc1 (stereo not drawn)
Output line: 165 nM

New cases:
Input line: I'd like to know its AC50. The compound in question is N#CC(c1ccc(Cl)cc1)c1cccc(C(F)(F)F)n1 (stereo not drawn)
Output line: 25.4 nM

Input line: I'd like to know its AC50. The compound in question is N#Cc1cccc(C(C#N)c2ccc(F)cc2)n1 (stereo not drawn)
Output line: 200 nM

Input line: I'd like to know its AC50. The compound in question is N#CC(c1cccc(C(F)(F)F)n1)c1ccc(Cl)cc1F (stereo not drawn)
Output line: < 3 nM

Input line: I'd like to know its AC50. The compound in question is COCCC(C#N)c1ccc(Cl)cc1 (stereo not drawn)
Output line: 6270 nM

Input line: I'd like to know its AC50. The compound in question is COCCC(C#N)c1ccc(F)cc1 (stereo not drawn)
Output line: 1270 nM

Input line: I'd like to know its AC50. The compound in question is N#CC(c1ccc(Cl)cc1)c1ccccn1 (stereo not drawn)
Output line: 296 nM

Values from PubChem BioAssay AID623991
